target: integrin alphaV beta3 (Homo sapiens, UniProt P06756;P06756;P05106 P06756:31-889,P06756:891-1048,P05106:27-788); experiment: microtiter plate, streptavidin-AP; Mg2+, Ca2+, Mn2+, pH 7.5, 37 C; conditions: label: 5'-biotin
Sequence (P06756 31-889, chain 1 of 3): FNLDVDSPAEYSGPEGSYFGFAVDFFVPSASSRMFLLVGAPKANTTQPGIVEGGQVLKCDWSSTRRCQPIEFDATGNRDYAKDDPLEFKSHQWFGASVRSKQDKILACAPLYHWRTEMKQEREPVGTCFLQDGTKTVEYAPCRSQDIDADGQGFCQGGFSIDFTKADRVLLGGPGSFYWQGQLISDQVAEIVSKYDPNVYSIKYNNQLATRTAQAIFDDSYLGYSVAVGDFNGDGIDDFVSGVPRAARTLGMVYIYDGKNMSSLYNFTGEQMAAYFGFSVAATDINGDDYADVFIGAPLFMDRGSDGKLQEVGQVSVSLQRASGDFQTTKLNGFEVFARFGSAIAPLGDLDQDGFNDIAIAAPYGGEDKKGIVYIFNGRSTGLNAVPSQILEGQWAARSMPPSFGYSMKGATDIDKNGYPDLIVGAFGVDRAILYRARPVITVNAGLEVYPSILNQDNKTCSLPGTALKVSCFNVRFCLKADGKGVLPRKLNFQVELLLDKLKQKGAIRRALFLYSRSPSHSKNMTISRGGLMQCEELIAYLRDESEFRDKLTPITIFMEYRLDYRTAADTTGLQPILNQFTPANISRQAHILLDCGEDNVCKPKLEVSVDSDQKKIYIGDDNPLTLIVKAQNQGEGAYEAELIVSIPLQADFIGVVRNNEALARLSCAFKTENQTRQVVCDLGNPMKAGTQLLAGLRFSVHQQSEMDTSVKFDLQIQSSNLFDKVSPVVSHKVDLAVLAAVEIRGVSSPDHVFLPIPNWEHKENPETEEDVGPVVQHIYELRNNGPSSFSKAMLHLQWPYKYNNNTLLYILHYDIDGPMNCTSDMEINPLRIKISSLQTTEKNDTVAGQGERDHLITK
Sequence (P06756 891-1048, chain 2 of 3): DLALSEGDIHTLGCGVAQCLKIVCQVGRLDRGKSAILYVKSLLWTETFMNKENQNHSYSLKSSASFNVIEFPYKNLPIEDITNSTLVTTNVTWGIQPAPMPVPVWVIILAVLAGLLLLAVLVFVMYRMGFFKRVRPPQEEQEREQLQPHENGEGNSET
Sequence (P05106 27-788, chain 3 of 3): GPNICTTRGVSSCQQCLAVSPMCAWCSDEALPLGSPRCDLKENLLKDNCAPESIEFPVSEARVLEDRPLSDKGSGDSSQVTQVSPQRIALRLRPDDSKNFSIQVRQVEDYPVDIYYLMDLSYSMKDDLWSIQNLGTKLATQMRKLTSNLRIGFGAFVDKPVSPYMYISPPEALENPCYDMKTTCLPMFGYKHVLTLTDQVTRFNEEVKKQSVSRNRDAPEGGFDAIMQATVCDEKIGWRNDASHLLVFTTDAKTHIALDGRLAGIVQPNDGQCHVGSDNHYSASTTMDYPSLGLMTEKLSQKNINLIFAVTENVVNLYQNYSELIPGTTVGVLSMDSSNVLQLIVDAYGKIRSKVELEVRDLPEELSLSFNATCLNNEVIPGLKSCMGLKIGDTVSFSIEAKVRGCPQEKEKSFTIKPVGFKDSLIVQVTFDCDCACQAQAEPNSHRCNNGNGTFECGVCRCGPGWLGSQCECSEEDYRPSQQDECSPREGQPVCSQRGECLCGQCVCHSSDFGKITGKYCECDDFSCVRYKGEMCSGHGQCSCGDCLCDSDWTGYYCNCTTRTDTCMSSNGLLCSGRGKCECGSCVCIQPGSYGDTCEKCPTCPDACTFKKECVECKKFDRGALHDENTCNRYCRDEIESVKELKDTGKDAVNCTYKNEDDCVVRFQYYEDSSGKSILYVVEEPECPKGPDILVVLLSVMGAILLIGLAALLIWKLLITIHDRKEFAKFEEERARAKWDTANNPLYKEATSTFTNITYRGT
pKd: −log10 of the molar value.
# pKd per entry
TEST READOUT: pKd

>>> value("15.2 (ssRNA, 2'-F C and U) RNA: GGGAGACAAGAAUAAACGCUCAAUUCAACGUUGUCAAAGGGCUUAUAUGAGCGGAUUACCCUUCGACAGGAGGCUCACAACAGGC")
8.22
>>> value("15.13 (ssRNA, 2'-F C and U) RNA: GGGAGACAAGAAUAAACGCUCAAGCGGGAUUUUCCUGAUCAUCCCACUGAUUCGGGGCCUUACUUCGACAGGAGGCUCACAACAGGC")
6.10
>>> value("7.77 (ssRNA, 2'-F C and U) RNA: GGGAGACAAGAAUAAACGCUCAAUUCAACGAUGUUGAGGGGCUUAUAUGAGCGCAUUAUACCCUUCGACAGGAGGCUCACAACAGGC")
6.11
>>> value("17.8 (ssRNA, 2'-F C and U) RNA: GGGAGACAAGAAUAAACGCUCAAUUCAACGUUGUCUAAGGGCUUAUAUGAGCGGAUUACCCUUCGACAGGAGGCUCACAACAGGC")
7.74
>>> value("17.7 (ssRNA, 2'-F C and U) RNA: GGGAGACAAGAAUAAACGCUCAAUUCUACGCUGUGAAGGGCUUAUACGAGCGGAUUACCCUUCGACAGGAGGCUCACAACAGGC")
8.22
